Recorded growth for the following compounds
- Tested on: MDA-MB-435 melanoma
- ASSAY NOTES: NCI-60 one-dose screen, 48 h (100 = growth as untreated, 0 = no growth, -100 = all killed)
- MEASUREMENT PARAMETERS: 10 µM unless noted
- Method: Growth inhibition of the MDA-MB-435 human Melanoma tumor cell line is measured as a screen for anti-cancer activity. Cells are grown in 96 well plates and exposed to the test compound for 48 hours. Compounds are tested at a single concentration, which is 10^-5 M for most compounds. The reported endpoint is percent growth (GI% or GIPRCNT), where numbers from 0 - 100% represent growth inhibition, and numbers from -100% - 0 represent cell death. […]
Compounds without any hit were thinned out: in the full panel of roughly 83,000, 20% have a hit.
Value expressed in %; do not type the unit.

Known growth results, listed for orientation:
| STRUCTURE AS SMILES | UNITS | growth |
| --- | --- | --- |
| COC(=O)/C=C1/SC(=NCc2ccccc2)N(CCc2c[nH]c3ccccc23)C1=O | % | 72.3 |
| Cc1cccc(N=Nc2cccc(C)c2)c1 | % | 100 |
| O=C(Cc1ccc(/C=C/C(=O)c2ncc[nH]2)cc1)Nc1cc(F)c(F)c(F)c1 | % | 51.2 |
| COc1cc(Cc2cc(-c3ccccc3)nn(Cc3ccccc3)c2=O)cc(OC)c1OC | % | 44.9 |

Recorded growth of CCCCCCCCCCCCCCCCCCOc1ccccc1CC(=O)NCC[N+](C)(C)C , please.
73.1
